test system: Clostridioides difficile; assay: Minimum inhibitory concentration against Clostridium difficile ATCC 9689; format: functional
Readout name: log10 MIC (log10 of the value in µg/mL)
Note: values are log10 of MIC expressed in µg/mL.

Quick note, log10 MIC for O=C(/C=C/C(Br)=C/c1ccccc1)C1=C(O)CNC1=O landed at 0.90

Quick note, log10 MIC for CN1CC(O)=C(C(=O)/C=C/C(Cl)=C/c2ccccc2)C1=O landed at 0.90

Quick note, log10 MIC for CC(/C=C/C(=O)C1=C(O)CN(C)C1=O)=C\c1ccccn1 landed at 0.90

Quick note, log10 MIC for CC(/C=C/C(O)=C1\C(=O)CN(C)C1=O)=C\C(C)C1CCCCC1 (centres undefined) landed at 0.30

Quick note, log10 MIC for CC(/C=C/C(O)=C1\C(=O)CNC1=O)=C\c1cccc2ccccc12 landed at 0.00

Quick note, log10 MIC for CC(/C=C/C(=O)C1=C(O)CN(C)C1=O)=C\c1ccccc1 landed at 0.60

Quick note, log10 MIC for CN1CC(O)=C(C(=O)/C=C/C=C/c2ccccc2[N+](=O)[O-])C1=O landed at 1.79

Quick note, log10 MIC for CN1CC(O)=C(C(=O)/C=C/C(Br)=C/c2ccccc2)C1=O landed at 1.20

Quick note, log10 MIC for CC(/C=C/C(=O)C1=C(O)C(C)N(C)C1=O)=C\c1ccc2ccccc2c1 (centres undefined) landed at 1.79

Quick note, log10 MIC for O=C(/C=C/C(Cl)=C/c1ccccc1)C1=C(O)CNC1=O landed at 0.60

Quick note, log10 MIC for CC(/C=C/C(=O)C1=C(O)CN(C)C1=O)=C\C1CCc2ccccc2C1 (centres undefined) landed at 2.10

Quick note, log10 MIC for CC(/C=C/C(=O)C1=C(O)CN(C)C1=O)=C\c1ccc(F)c2ccccc12 landed at 1.49
